# target_under_test: GLP-1 receptor (Homo sapiens, UniProt P43220)
# Construct: expressed in transfected cells; host or cells: HEK293
# Sequence (P43220 24-463, species assumed): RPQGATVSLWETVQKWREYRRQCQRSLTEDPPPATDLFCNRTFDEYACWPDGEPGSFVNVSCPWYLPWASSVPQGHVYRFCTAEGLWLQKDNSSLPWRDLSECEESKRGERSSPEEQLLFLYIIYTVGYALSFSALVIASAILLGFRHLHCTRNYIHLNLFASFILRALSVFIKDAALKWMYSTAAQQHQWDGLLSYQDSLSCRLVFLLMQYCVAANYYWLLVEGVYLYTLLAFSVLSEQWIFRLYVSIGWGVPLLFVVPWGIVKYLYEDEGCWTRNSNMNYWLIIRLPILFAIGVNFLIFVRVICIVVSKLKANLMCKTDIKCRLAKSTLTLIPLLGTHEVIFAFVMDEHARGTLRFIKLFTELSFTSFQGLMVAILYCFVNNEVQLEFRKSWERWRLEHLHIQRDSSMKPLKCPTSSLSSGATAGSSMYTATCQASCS
# assay_overview: Functional assay-cAMP synthesis, luciferase reporter in HEK293 cells co-transfected with GLP-1 receptor
# Format: cell-based
# condition_set: Table 12; peptide without PEG
Where no end group is shown, it is not given here. [ ]: non-standard residue; d: D form. Aib = CC(C)(N)C(=O)O
result_type: Parent w/o PEG % Potency Relative to Native GLP-1R (%)
Give bare numbers, in %.

# example entries with known answers
HX2QGT FTSDYSKYLDEQAAKEFIAWLMNC*a (H[Aib]QGTFTSDYSKYLDEQAAKEFIAWLMNC-NH2; also: optional PEG on Cys29) [Chimera AIB2, Cys29 (SEQ ID NO: 487), X2=AIB; C* is Cys or Cys attached to PEG]    124.6
HX2QGT FTSDYSKYLDEQAAKEFIAWLMNGGPSSGAPPPSC*a (H[Aib]QGTFTSDYSKYLDEQAAKEFIAWLMNGGPSSGAPPPSC-NH2; also: optional PEG on Cys40) [X2=AIB; C* is Cys or Cys attached to PEG]    359.1
HX2QGT FTSDY SKYLD EQAAK EFIC*W LMNGG PSSGA PPPSa (H[Aib]QGTFTSDYSKYLDEQAAKEFICWLMNGGPSSGAPPPS-NH2; also: optional PEG on Cys24) [X2=AIB; C* is Cys or Cys attached to PEG]    457.8

IN: Param readout= Parent w/o PEG % Potency Relative to Native GLP-1R; system= GLP-1 receptor (Homo sapiens, UniProt P43220); entry= X1SQGT FTSDYSKYLD EQAAK EFIC*W LMNTa [Chimera DMIA1, Cys24 (SEQ ID NO: 519)] ; returns value.
OUT: 64.5

---

# target_under_test: GLP-1 receptor (Homo sapiens, UniProt P43220)
# Construct: expressed in transfected cells; host or cells: HEK293
# assay_overview: Functional assay-cAMP synthesis, luciferase reporter in HEK293 cells co-transfected with GLP-1 receptor
# Assay type: cell-based
# condition_set: Table 12; pegylated peptide
Where no end group is shown, it is not given here. [ ]: non-standard residue; d: D form. PEG = not defined here; Aib = CC(C)(N)C(=O)O
Kindly supply the reported Parent w/PEG % Potency Relative to Native GLP-1R values for the records listed here.
Numbers only, in %.

Some substances with recorded Parent w/PEG % Potency Relative to Native GLP-1R:
X1SQGT FTSDYSKYLD EQAAK EFIC*W LMNTa [Chimera DMIA1, Cys24 (SEQ ID NO: 519)]    19.3
HX2QGT FTSDY SKYLD ERAAK DFVC*W LMNTa (H[Aib]QGTFTSDYSKYLDERAAKDFVC(PEG)WLMNT-NH2; reading uncertain) [E16, K20AIB2, A18 Cys24 (SEQ ID NO: 492), X2=AIB; C* is Cys attached to PEG in the tested form]    73.5
HX2QGT FTSDYSKYLDEQAAKEFIAWLMNC*a (H[Aib]QGTFTSDYSKYLDEQAAKEFIAWLMNC-NH2; also: optional PEG on Cys29) [Chimera AIB2, Cys29 (SEQ ID NO: 487), X2=AIB; C* is Cys or Cys attached to PEG]    54.3

# evaluate next
IN: Fill in: Parent w/PEG % Potency Relative to Native GLP-1R of HX2QGT FTSDY SKYLD ERAAK DFVC*W LMNGG PSSGA PPPSa (H[Aib]QGTFTSDYSKYLDERAAKDFVC(PEG)WLMNGGPSSGAPPPS-NH2; reading uncertain) [X2=AIB; C* is Cys attached to PEG in the tested form] is ___
OUT: 88.5

---

# target_under_test: glucagon receptor (Homo sapiens, UniProt P47871)
# Construct: expressed in transfected cells; host or cells: HEK293
# Sequence (P47871 26-477): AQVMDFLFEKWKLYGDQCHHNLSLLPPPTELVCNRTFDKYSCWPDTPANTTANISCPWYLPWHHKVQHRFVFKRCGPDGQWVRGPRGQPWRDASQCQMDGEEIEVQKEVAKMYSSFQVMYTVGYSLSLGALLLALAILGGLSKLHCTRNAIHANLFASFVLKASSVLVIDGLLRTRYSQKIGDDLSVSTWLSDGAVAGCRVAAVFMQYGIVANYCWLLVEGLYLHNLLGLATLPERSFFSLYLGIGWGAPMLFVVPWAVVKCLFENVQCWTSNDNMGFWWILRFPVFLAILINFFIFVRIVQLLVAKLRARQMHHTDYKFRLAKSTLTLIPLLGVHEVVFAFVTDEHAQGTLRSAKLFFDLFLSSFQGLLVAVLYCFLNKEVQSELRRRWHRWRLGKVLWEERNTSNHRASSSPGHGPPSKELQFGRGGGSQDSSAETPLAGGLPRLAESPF
# assay_overview: Functional assay-cAMP synthesis, luciferase reporter in HEK293 cells co-transfected with glucagon receptor
# Assay type: cell-based
# condition_set: Table 12; peptide without PEG
Where no end group is shown, it is not given here. [ ]: non-standard residue; d: D form. DMIA = not defined here; Aib = CC(C)(N)C(=O)O
result_type: Parent w/o PEG % Potency Relative to Native GR
Please answer in the form of a number followed by its unit of measurement.

In the examples that follow, each entry is paired with its recorded Parent w/o PEG % Potency Relative to Native GR.
X1SQGT FTSDY SKYLD ERRAK DFVC*W LMNGG PSSGA PPPSa ([DMIA]SQGTFTSDYSKYLDERRAKDFVCWLMNGGPSSGAPPPS-NH2; lactam (positions not given here); not fully specified; reading uncertain) [X1=DMIA; C* is Cys or Cys attached to PEG]    116.0%
HX2QGT FTSDYSKYLDEQAAKEFIAWLMNGGPSSGAPPPSC*a (H[Aib]QGTFTSDYSKYLDEQAAKEFIAWLMNGGPSSGAPPPSC-NH2; also: optional PEG on Cys40) [X2=AIB; C* is Cys or Cys attached to PEG]    2.2%
HX2QGT FTSDY SKYLD EQAAK EFIC*W LMNGG PSSGA PPPSa (H[Aib]QGTFTSDYSKYLDEQAAKEFICWLMNGGPSSGAPPPS-NH2; lactam (positions not given here); also: optional PEG on Cys24) [X2=AIB; C* is Cys or Cys attached to PEG]    25.2%
HX2QGT FTSDY SKYLD EQAAK EFIC*W LMNGG PSSGA PPPSa (H[Aib]QGTFTSDYSKYLDEQAAKEFICWLMNGGPSSGAPPPS-NH2; also: optional PEG on Cys24) [X2=AIB; C* is Cys or Cys attached to PEG]    2.5%
HX2QGT FTSDYSKYLDEQAAKEFIAWLMNGGPSSGAPPPSC*a (H[Aib]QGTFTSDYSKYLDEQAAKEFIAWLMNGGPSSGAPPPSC-NH2; lactam (positions not given here); also: optional PEG on Cys40) [X2=AIB; C* is Cys or Cys attached to PEG]    14.2%

// each listed substance needs a value for Parent w/o PEG % Potency Relative to Native GR
1. HX2QGT FTSDY SKYLD ERRAK DFVC*W LMNTa (H[Aib]QGTFTSDYSKYLDERRAKDFVCWLMNT-NH2; lactam (positions not given here); also: optional PEG on Cys24) [X2=AIB; C* is Cys or Cys attached to PEG]
2. X1SQGT FTSDYSKYLD EQAAK EFIC*W LMNTa [Chimera DMIA1, Cys24 (SEQ ID NO: 519)]
3. HX2QGT FTSDYSKYLDEQAAKEFIAWLMNC*a (H[Aib]QGTFTSDYSKYLDEQAAKEFIAWLMNC-NH2; also: optional PEG on Cys29) [Chimera AIB2, Cys29 (SEQ ID NO: 487), X2=AIB; C* is Cys or Cys attached to PEG]

OUT:
108.3%
28.9%
20.1%

---

# target_under_test: glucagon receptor (Homo sapiens, UniProt P47871)
# Construct: expressed in transfected cells; host or cells: HEK293
# assay_overview: Functional assay-cAMP synthesis, luciferase reporter in HEK293 cells co-transfected with glucagon receptor
# Format: cell-based
Where no end group is shown, it is not given here.
result_type: EC50 (nM)
Numbers only, in nM.

IN: Given the entry HSQGTFTSDYSKYLDSRRAQDFVQWLVKGGPSSGAPPPS-NH2 [-VKGG^30 PSSGAPPPS (SEQ ID NO: 524)] , report its measured EC50.
OUT: 1.16

---

Could you please report measured EC50 for the items listed next?
# target_under_test: GLP-1 receptor (Homo sapiens, UniProt P43220)
# Construct: expressed in transfected cells; host or cells: HEK293
# assay_overview: Functional assay-cAMP synthesis, luciferase reporter in HEK293 cells co-transfected with GLP-1 receptor
# Assay type: cell-based
Where no end group is shown, it is not given here.
One number for each entry, in nM.

Reference set, count: 2
HSQGTFTSDYSKYLDEQAAKEFIAWLVKG-NH2 [E16 GLP(17-29)-NH2, HSQGTFTSDYSKYLDEQAAKEFIAW LVKGa]    0.01
HSQGTFTSDYSKYLDEQAAKEFIEWLVKG-NH2 [E16 GLP(17-29)-NH2 E24, K28]    0.007

IN: # lookup: EC50 of HSQGTFTSDYSKYLDSRRAQDFVQWLVKGGPSSGAPPPS-NH2 [-VKGG^30 PSSGAPPPS (SEQ ID NO: 524)]
OUT: 0.21
